Quick reference for GI50 among some compounds
Test system: HT-29
protocol_summary: NCI tumour cell line growth inhibition, 48 h
The source made the active and inactive calls. Rule as the data show it: active = GI50 up to about 1.1 µM and inactive = higher.

Q: Reported GI50, compound CC(=O)Nc1ccc(C(=O)N2N=C(C)/C(=C/c3cccc(O)c3)C2=O)cc1 : ____
Ans: > 100 µM (inactive)

Q: Request the reported GI50 associated with CCN1c2nc3ccccc3nc2N(CC)c2nc3ccccc3nc21
Ans: 39.5 µM (inactive)

Q: If you can, please state the reported GI50 value of CN(N=O)C(=O)N(N)CCCCC(NC(=O)OCc1ccccc1)C(=O)OCc1ccccc1 (stereo unspecified) .
Ans: 79.6 µM (inactive)

Q: Sample CCOC(=O)C1(N)CCc2[nH][nH]c(=O)c2C1 (stereo unspecified) — what was its GI50?
Ans: > 100 µM (inactive)

Q: Would you kindly share the measured GI50 for Cc1ccc(S(=O)(=O)NN=C2C(C)(C)CC2(C)C)cc1 ?
Ans: > 100 µM (inactive)

Q: Returns the measured GI50 for the input compound. Input: Nc1c(-c2ccccc2[N+](=O)[O-])nc2ccccn12
Ans: > 100 µM (inactive)

Q: I'd like to know its GI50. The compound in question is Cc1cc(S(=O)(=O)/N=C(\NN)Nc2ccc(Cl)cc2)c(S)cc1Cl
Ans: 16.1 µM (inactive)

Q: Which value of GI50 has been reported for O=C1OCc2c1cc1cc3c(cc1c2-c1ccc2c(c1)OCO2)OCO3.O=C1OCc2cc3cc4c(cc3c(-c3ccc5c(c3)OCO5)c21)OCO4 in the records?
Ans: 7.23 µM (inactive)

Q: Return reported GI50; argument: CN1CCC2(CC1)SC[C@H]1C(=O)N(c3ccc(Cl)cc3)C(=O)N12
Ans: > 100 µM (inactive)

Q: Can you share its GI50? I mean this compound: COc1cc(OC)c(OC)cc1/C=N/NC(=O)N/N=C/c1cc(OC)c(OC)cc1OC
Ans: > 100 µM (inactive)

Q: Name the reported GI50 value associated with the compound CCOC(=O)N(C)CCC1CC=CC(=O)C1c1cccc(OC)c1OC (stereo unspecified)
Ans: 13.8 µM (inactive)

Q: // GI50 lookup, key: Cc1ccc(N2C(=O)N(c3ccc(C)cc3)C3(SC=NN3C)C2=O)cc1 (stereo unspecified)
Ans: 32.4 µM (inactive)

Q: Please give the measured GI50 for this compound: CCC1C2C=CC(CC2)N1S(=O)(=O)c1ccc(C)cc1 (stereo unspecified)
Ans: 24.4 µM (inactive)

###

Test system: SK-MEL-2
protocol_summary: NCI tumour cell line growth inhibition, 48 h
Calls of active or inactive are those of the source. Cut-off read from the data, not from the text of the source: active = GI50 up to about 1.1 µM and inactive = higher.
test_readout: GI50

Worked cases, GI50 given:
CC(C)(C)[Si](C)(C)OC1(CCc2ccccc2OS(=O)(=O)C(F)(F)F)CCCC=C1COCc1ccccc1 (stereo not drawn)	4.59 µM (inactive)
CC12CN(CC[N+](C)(C)C)CC1(C)C1CCC2O1 (stereo not drawn)	> 100 µM (inactive)
N#Cc1c(C#N)c(-c2ccco2)n(/N=C/c2ccco2)c1N	> 100 µM (inactive)
[N-]=[N+]=Nc1nc2ccccc2c(N=[N+]=[N-])c1Cl	> 100 µM (inactive)

Q: Form field: reported GI50 of CC12C(=O)OC(=O)C1(C)C1C=CC2O1 (stereo not drawn)
Ans: > 100 µM (inactive)

Q: I have this molecule here, COc1ccc(NC(=O)c2cc(OC)c(OC)c(OC)c2)cc1 , and I need its recorded GI50.
Ans: 21.8 µM (inactive)

Q: Form field: reported GI50 of CO/C(=N\N=C\c1ccc(Cl)cc1)c1ccncc1
Ans: > 100 µM (inactive)

Q: Fill blank: measured GI50 of the molecule COc1c(Br)cc2ccccc2c1-c1c(OC)c(Br)cc2ccccc12 is ____.
Ans: > 100 µM (inactive)

Q: Requested field: GI50. Item: CC(=O)Nc1cc2c3c(c1)CCCN3CCC2
Ans: > 100 µM (inactive)

Q: What measured GI50 goes with O=c1c(-c2ccc(O)cc2)coc2cc(OC3OC(CO)C(O)C(O)C3O)cc(O)c12 (stereo not drawn) ?
Ans: > 10 µM (inactive)

Q: Name the recorded GI50 for C=CCOc1ccc(C2c3c(n[nH]c3O)CC(C)(O)C2C(=O)OC)cc1OC (stereo not drawn) .
Ans: > 100 µM (inactive)

Q: Consider the molecule shown here: O=S1(=O)OCCOS(=O)(=O)C1S(=O)(=O)c1ccc2ccccc2c1 What is its recorded GI50?
Ans: > 100 µM (inactive)
